study.target: Voltage-dependent N-type calcium channel subunit alpha-1B (Homo sapiens, UniProt Q00975)
Sequence (Q00975 whole entry, looked up): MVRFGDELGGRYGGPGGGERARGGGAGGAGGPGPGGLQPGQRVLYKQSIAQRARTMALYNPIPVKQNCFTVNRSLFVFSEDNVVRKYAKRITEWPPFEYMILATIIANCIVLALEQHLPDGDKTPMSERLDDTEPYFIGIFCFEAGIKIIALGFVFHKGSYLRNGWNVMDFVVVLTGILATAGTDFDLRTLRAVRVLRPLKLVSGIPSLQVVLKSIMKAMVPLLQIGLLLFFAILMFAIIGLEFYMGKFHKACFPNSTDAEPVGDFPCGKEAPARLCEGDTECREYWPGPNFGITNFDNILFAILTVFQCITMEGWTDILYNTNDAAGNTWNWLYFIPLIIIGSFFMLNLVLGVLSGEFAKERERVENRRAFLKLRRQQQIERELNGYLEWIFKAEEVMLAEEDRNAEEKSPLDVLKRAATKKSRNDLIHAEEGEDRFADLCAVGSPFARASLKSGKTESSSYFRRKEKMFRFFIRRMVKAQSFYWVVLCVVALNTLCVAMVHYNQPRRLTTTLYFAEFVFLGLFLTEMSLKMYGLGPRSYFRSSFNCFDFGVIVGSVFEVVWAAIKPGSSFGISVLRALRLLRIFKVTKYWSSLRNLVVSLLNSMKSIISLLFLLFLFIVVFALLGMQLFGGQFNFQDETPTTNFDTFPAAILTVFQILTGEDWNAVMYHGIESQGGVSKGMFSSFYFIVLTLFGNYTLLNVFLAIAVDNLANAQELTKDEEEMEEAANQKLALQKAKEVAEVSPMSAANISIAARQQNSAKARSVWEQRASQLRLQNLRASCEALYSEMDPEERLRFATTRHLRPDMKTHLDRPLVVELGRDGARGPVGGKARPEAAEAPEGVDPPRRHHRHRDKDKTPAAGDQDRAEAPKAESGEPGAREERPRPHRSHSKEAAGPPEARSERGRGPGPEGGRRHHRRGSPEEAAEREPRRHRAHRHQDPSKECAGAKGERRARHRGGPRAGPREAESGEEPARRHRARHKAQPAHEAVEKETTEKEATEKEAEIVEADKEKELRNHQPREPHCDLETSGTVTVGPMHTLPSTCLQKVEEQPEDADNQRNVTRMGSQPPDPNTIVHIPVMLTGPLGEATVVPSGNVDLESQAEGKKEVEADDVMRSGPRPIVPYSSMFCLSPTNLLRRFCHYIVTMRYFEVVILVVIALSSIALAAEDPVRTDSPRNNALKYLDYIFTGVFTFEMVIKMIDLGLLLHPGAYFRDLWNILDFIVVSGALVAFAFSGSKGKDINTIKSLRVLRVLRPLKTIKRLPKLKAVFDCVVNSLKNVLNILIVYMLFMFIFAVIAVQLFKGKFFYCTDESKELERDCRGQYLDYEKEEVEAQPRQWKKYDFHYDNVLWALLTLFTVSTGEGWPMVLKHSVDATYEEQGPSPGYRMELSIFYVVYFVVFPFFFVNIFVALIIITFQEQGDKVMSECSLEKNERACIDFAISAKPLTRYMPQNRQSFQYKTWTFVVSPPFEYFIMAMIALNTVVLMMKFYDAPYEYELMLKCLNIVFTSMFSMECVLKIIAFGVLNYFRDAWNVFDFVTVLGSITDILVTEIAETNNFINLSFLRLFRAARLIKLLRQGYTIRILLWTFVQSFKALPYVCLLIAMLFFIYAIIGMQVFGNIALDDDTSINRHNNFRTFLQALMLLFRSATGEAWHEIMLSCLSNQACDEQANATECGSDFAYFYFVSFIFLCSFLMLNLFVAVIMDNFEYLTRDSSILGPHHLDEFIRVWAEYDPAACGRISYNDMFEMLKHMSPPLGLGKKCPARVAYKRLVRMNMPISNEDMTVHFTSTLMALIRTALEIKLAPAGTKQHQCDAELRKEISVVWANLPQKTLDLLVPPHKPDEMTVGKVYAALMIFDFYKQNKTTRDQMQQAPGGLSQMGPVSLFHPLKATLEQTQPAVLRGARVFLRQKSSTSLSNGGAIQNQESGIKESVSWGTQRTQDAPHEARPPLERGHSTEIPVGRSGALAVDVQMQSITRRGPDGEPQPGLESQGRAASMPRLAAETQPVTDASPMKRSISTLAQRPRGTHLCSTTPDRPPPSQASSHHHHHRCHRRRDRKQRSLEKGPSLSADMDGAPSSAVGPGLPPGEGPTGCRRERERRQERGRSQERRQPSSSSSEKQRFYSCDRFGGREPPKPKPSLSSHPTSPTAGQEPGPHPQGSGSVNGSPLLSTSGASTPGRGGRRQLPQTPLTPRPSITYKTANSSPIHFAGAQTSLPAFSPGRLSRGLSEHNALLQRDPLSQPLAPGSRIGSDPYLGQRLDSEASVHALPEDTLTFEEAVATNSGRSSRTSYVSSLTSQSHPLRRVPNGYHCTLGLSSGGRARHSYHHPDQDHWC
test: In vitro inhibition of N-type calcium channel current in IMR-32 cells at 10 uM
Type: functional
# reported inhibition; entries follow

{"compound": "COc1ccc(CNC(=O)[C@H](CSCC2CCCCC2)NC(=O)OC(C)(C)C)cc1", "unit": "%", "inhibition": 66}
{"compound": "COc1ccc(CNC(=O)[C@H](CSCC2CCCC2)NC(=O)OC(C)(C)C)cc1", "unit": "%", "inhibition": 45}
{"compound": "COc1ccc(CNC(=O)[C@H](COCC2CCCCC2)NC(=O)OC(C)(C)C)cc1", "unit": "%", "inhibition": 38}
{"compound": "COc1ccc(COC(=O)[C@H](CC(=O)OC2CCCC2)NC(=O)OC(C)(C)C)cc1", "unit": "%", "inhibition": 34}

* * *

# reported Selectivity ratio; entries follow
test: Selectivity ratio between the L-type to N-type calcium influx
Format: functional

{"compound": "COc1ccccc1COC(=O)[C@H](CC(=O)OC1CCCC1)NC(=O)OC(C)(C)C", "Selectivity ratio": 2.8}
{"compound": "COC(=O)C[C@H](NC(=O)OC(C)(C)C)C(=O)OCc1ccc(OC)cc1", "Selectivity ratio": 0.5}
{"compound": "COc1ccc(CN(C)C(=O)[C@H](COCC2CCCCC2)NC(=O)OC(C)(C)C)cc1", "Selectivity ratio": 0.8}
{"compound": "COc1ccc(COC(=O)[C@H](COC(=O)C2CCCCC2)NC(=O)OC(C)(C)C)cc1", "Selectivity ratio": 6.3}
{"compound": "COc1ccc(CNC(=O)[C@H](CSCC2CCCC2)NC(=O)OC(C)(C)C)cc1", "Selectivity ratio": 6.2}
{"compound": "COc1ccc(COC(=O)[C@H](CC(=O)OC2CCCC2)NC(=O)OC(C)(C)C)cc1", "Selectivity ratio": 4.4}
{"compound": "CC(C)(C)OC(=O)N[C@@H](CC(=O)OC1CCCC1)C(=O)OCc1ccc(Cl)cc1", "Selectivity ratio": 4.8}
{"compound": "COc1ccc(COC(=O)[C@H](COCC2CCCCC2)NC(=O)OC(C)(C)C)cc1", "Selectivity ratio": 7}
{"compound": "COc1ccc(CNC(=O)[C@H](COCC2CCCCC2)NC(=O)OC(C)(C)C)cc1", "Selectivity ratio": 4}
{"compound": "COc1ccc(COC(=O)[C@H](CC(=O)OC2CCC2)NC(=O)OC(C)(C)C)cc1", "Selectivity ratio": 1.9}
{"compound": "COc1cccc(COC(=O)[C@H](CC(=O)OC2CCCC2)NC(=O)OC(C)(C)C)c1", "Selectivity ratio": 3.2}
{"compound": "COc1ccc(CNC(=O)[C@H](CCOC2CCCCC2)NC(=O)OC(C)(C)C)cc1", "Selectivity ratio": 3.3}
{"compound": "COc1ccc(COC(=O)[C@H](CC(=O)OC2CCCCCC2)NC(=O)OC(C)(C)C)cc1", "Selectivity ratio": 4.6}
{"compound": "COc1ccc(COC(=O)[C@@H](CC(=O)OC2CCCC2)NC(=O)OC(C)(C)C)cc1", "Selectivity ratio": 1.5}
{"compound": "COc1ccc(COC(=O)[C@H](CC(=O)OC2CCCCC2)NC(=O)OC(C)(C)C)cc1", "Selectivity ratio": 7}
{"compound": "CC(C)(C)OC(=O)N[C@@H](CC(=O)OC1CCCC1)C(=O)OCc1ccc(Br)cc1", "Selectivity ratio": 1.6}
{"compound": "COc1ccc(CNC(=O)[C@H](CSCC2CCCCC2)NC(=O)OC(C)(C)C)cc1", "Selectivity ratio": 2.8}
